# Test system: HT-29
# run.description: Antiproliferative activity against human HT-29 cells measured after 72 hrs by MTT assay
# settings: HT-29, 72 h
Items are presented alongside their recorded IC50.
quantity: IC50 (µM)

• COc1cc2c(Oc3ccc(NC(=O)c4nc(-c5ccc(F)cc5)no4)cc3)ccnc2cc1OCCCN1CCC(C)CC1 = 6.38
• COc1cc2c(Oc3ccc(NC(=O)C(C)(C)c4nnc(-c5ccc(F)cc5)o4)cc3F)ccnc2cc1OCCCN1CCCC1 = 1.03
• COc1cc2c(Oc3ccc(NC(=O)C4(c5nnc(-c6ccc(F)cc6)o5)CC4)cc3F)ccnc2cc1OCCCN1CCC(C)CC1 = 0.442
• COc1cc2c(Oc3ccc(NC(=O)Cc4nc(-c5ccc(F)cc5)no4)cc3F)ccnc2cc1OCCCN1CCC(C)CC1 = 1.16
• COc1ccc(-c2nnc(CC(=O)Nc3ccc(Oc4ccnc5cc(OCCCN6CCC(C)CC6)c(OC)cc45)c(F)c3)o2)cc1 = 7.52
• CCC(C(=O)Nc1ccc(Oc2ccnc3cc(OCCCN4CCN(C)CC4)c(OC)cc23)c(F)c1)c1nnc(-c2ccc(F)cc2)o1 (configuration not stated) = 1.54
• CCC(C(=O)Nc1ccc(Oc2ccnc3cc(OCCCN4CCCCC4)c(OC)cc23)c(F)c1)c1nnc(-c2ccc(F)cc2)o1 (configuration not stated) = 1.08
